Please respond with reported normalized growth for every item in the list.
- assay-name: chemical genetic growth profiling, strain panel (AID 1159580);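 also: tested at 20 µM; growth read once vehicle control cultures reached saturation at 30 °C; 1 = growth at the plate median or of vehicle wells; lower values mean less growth of the strain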
- condition-parameters: S. cerevisiae deletion strains, growth OD, locus YLR342W, strain FKS1, stronger effect = lower value
Out of some 5,500 compounds screened, about 2,000 (36%) were called active. Another 18% or so got no clear call; they are omitted. Some of the results follow.
Give bare numbers.

// for each compound below, give its normalized growth
1. COc1cccc(OC)c1C(=O)N[C@@H]1C(=O)N2[C@@H]1SC(C)(C)[C@@H]2C(=O)O
2. Cc1onc(-c2c(Cl)cccc2Cl)c1C(=O)N[C@@H]1C(=O)N2[C@@H]1SC(C)(C)[C@@H]2C(=O)O
3. CC(=O)O[C@H]1CC[C@]2(C)C3CC(=O)[C@]4(C)C(C(C)=O)=CCC4C3CC[C@H]2C1 (stereo partly drawn)

**Result**
0.988
0.979
0.976

====

- assay-name: chemical genetic growth profiling, strain panel (AID 1159580);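 also: tested at 20 µM; growth read once vehicle control cultures reached saturation at 30 °C; 1 = growth at the plate median or of vehicle wells; lower values mean less growth of the strain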
- condition-parameters: S. cerevisiae deletion strains, growth OD, locus YDR392W, strain spt3
Among all 5,500 compounds or so, about 2,000 (36%) were called active. Inconclusive results (about 18%) are left out. Rule as the data show it: active = normalized growth mostly below about 0.91 (no sharp cut-off); inconclusive = no clear call, values can overlap the other calls; inactive = mostly above about 0.92. The list shows a part of the results.
Return exactly one item of T (active), F (inactive)

Cc1cc(C(C)(C)C)c(O)c(C)c1CC1=NCCN1 | F
CC1(C)S[C@@H]2[C@H](NC(=O)Cc3ccccc3)C(=O)N2[C@H]1C(=O)O | F
CC(=O)O[C@H]1CC[C@]2(C)C3CC[C@@]4(C)C(CC5O[C@@]6(CCC(C)CO6)[C@@H](C)C54)C3CC[C@@H]2C1 (some centres not stated) | F
CNCC[C@@H](Oc1ccccc1)c1ccccc1 | F
Cc1ccc(N(CC2=NCCN2)c2cccc(O)c2)cc1 | F

**Query** I'd appreciate the recorded outcome for CC(=O)O[C@@H]1CC[C@]2(C)C3CC[C@]4(C)C(=O)CCC4C3CC[C@H]2C1 (some centres not stated) from this test.
**Result** F

**Query** I'd appreciate the recorded outcome for O=c1[nH]cnc2c1ncn2C1O[C@H](CO)[C@@H](O)[C@H]1O (some centres not stated) from this test.
**Result** F

**Query** I'd appreciate the recorded outcome for "COc1cc(-c2coc3cc(O[C@@H]4O[C@H](CO)[C@@H](O)[C@H](O)[C@H]4O)c(OC)c(O)c3c2=O)cc(O)c1OC" from this test.
**Result** F

**Query** I'd appreciate the recorded outcome for COc1cc2c(cc1OC)[C@@H]1C(=O)c3ccc4c(c3O[C@@H]1CO2)CC(C(C)C)O4 (some centres not stated) from this test.
**Result** T

**Query** I'd appreciate the recorded outcome for CC(=O)OCC(=O)[C@@]12OC3(CCCC3)O[C@@H]1CC1C3CCC4=CC(=O)C=C[C@]4(C)[C@@]3(F)[C@@H](O)C[C@@]12C (some centres not stated) from this test.
**Result** F

**Query** I'd appreciate the recorded outcome for "CO[C@@]1(NC(=O)Cc2cccs2)C(=O)N2C(C(=O)O)=C(COC(N)=O)CS[C@@H]21" from this test.
**Result** F

**Query** I'd appreciate the recorded outcome for "CCNc1nc(Cl)nc(NCC)n1" from this test.
**Result** F

**Query** I'd appreciate the recorded outcome for "CCOc1cccc(C(=O)c2ccc(O)c(O)c2O)c1" from this test.
**Result** F

**Query** I'd appreciate the recorded outcome for "CNS(=O)(=O)c1ccc(NC(=O)c2ccccc2C(=O)O)cc1" from this test.
**Result** F

====

- assay-name: chemical genetic growth profiling, strain panel (AID 1159580);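 also: tested at 20 µM; growth read once vehicle control cultures reached saturation at 30 °C; 1 = growth at the plate median or of vehicle wells; lower values mean less growth of the strain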
- condition-parameters: S. cerevisiae deletion strains, growth OD, locus YGL167C, strain pmr1, stronger effect = lower value
Out of some 5,500 compounds screened, about 2,000 (36%) were called active. Roughly 18% stayed inconclusive and do not appear here. This is one part of the list. Where a SMILES comes first, the peptide text is derived from it. [ ]: non-standard residue; d: D form. Orn = NCCC[CH](N)C(=O)O
Please respond with reported normalized growth for every item in the list.
Answers are plain numbers.

// for each compound below, give its normalized growth
1. CC(C)CC1NC(=O)C(CCCN)NC(=O)C(C(C)C)NC(=O)C2CCCN2C(=O)C(Cc2ccccc2)NC(=O)C(CC(C)C)NC(=O)C(CCCN)NC(=O)C(C(C)C)NC(=O)C2CCCN2C(=O)C(Cc2ccccc2)NC1=O (stereo unspecified) (cyclo(FPV[Orn]LFPV[Orn]L); configuration not given here)
2. CCCCc1nc(Cl)c(CO)n1Cc1ccc(-c2ccccc2-c2nn[nH]n2)cc1
3. COc1cccc(OC)c1C(=O)N[C@@H]1C(=O)N2[C@@H]1SC(C)(C)[C@@H]2C(=O)O
4. COc1ccc([C@H]2COc3c(ccc(O)c3OC)C2)c(OC)c1O
5. CN1C(=O)CCS(=O)(=O)C1c1ccc(Cl)cc1 (stereo unspecified)
6. COc1cnc(NS(=O)(=O)c2ccc(N)cc2)nc1

**Result**
[1.04, 0.978, 0.99, 0.981, 0.963, 0.993]

// for each compound below, give its normalized growth
1. Cc1onc(-c2c(Cl)cccc2Cl)c1C(=O)N[C@@H]1C(=O)N2[C@@H]1SC(C)(C)[C@@H]2C(=O)O
2. CNS(=O)(=O)c1ccc(NC(=O)c2ccccc2C(=O)O)cc1
3. c1ccc2c(Cc3c[nH]c4ccccc34)c[nH]c2c1
4. CNC(Cc1c[nH]c2ccccc12)C(=O)O (stereo unspecified)
5. CCOC([O-])=Nc1c[n+](N2CCOCC2)no1
6. COc1c2occc2c(OC)c2c(=O)cc(C)oc12
7. c1ccc([C@H]2CN3CCSC3=N2)cc1
8. NC(=O)N1c2ccccc2C=Cc2ccccc21

**Result**
0.976
0.993
0.958
0.971
1
0.997
1
1.03

// for each compound below, give its normalized growth
1. COc1c2ccoc2cc2oc(C)cc(=O)c12
2. CCCc1nc2c(C)cc(-c3nc4ccccc4n3C)cc2n1Cc1ccc(-c2ccccc2C(=O)O)cc1
3. CC1=NN(c2ccccc2)C(=O)C1
4. NCCc1c[nH]c2ccccc12
5. Cc1onc(-c2ccccc2)c1C(=O)NC1C(=O)N2[C@@H]1SC(C)(C)[C@@H]2C(=O)O (stereo partly specified)
6. CCN(CC)CCNC(=O)c1cc(Cl)c(N)cc1OC
7. CC1(C)S[C@@H]2[C@H](NC(=O)Cc3ccccc3)C(=O)N2[C@H]1C(=O)O

**Result**
1. 0.997
2. 1.02
3. 0.982
4. 0.939
5. 1.02
6. 0.972
7. 1.04

====

- assay-name: chemical genetic growth profiling, strain panel (AID 1159580);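 also: tested at 20 µM; growth read once vehicle control cultures reached saturation at 30 °C; 1 = growth at the plate median or of vehicle wells; lower values mean less growth of the strain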
- condition-parameters: S. cerevisiae deletion strains, growth OD, locus YNL307C, strain MCK1, stronger effect = lower value
About 2,000 (36%) of roughly 5,500 compounds were called active. Not shown: some 18% with an inconclusive outcome. The list shows a part of the results. Where a SMILES comes first, the peptide text is derived from it. Side-chain parts run from the residue outwards. [ ]: non-standard residue; d: D form. The star is where a group is joined. X1 = CCC(C)C(N)C1=NC(C(=O)*)CS1; Orn = NCCC[CH](N)C(=O)O
parameter-measured: normalized growth
One number for each entry.

Worked cases, normalized growth given:
CCc1cccc2c3c([nH]c12)C(CC)(CC(=O)O)OCC3 (configuration not stated) | 1
CC(=O)[C@@]1(O)CCC2C3CCC4=CC(=O)CC[C@]4(C)C3CC[C@@]21C (some centres not stated) | 1.01
CN1C(=O)CCS(=O)(=O)C1c1ccc(Cl)cc1 (configuration not stated) | 1.01
CC(=O)O[C@H]1CC[C@]2(C)C3CC[C@@]4(C)C(CC5O[C@@]6(CCC(C)CO6)[C@@H](C)C54)C3CC[C@H]2C1 (some centres not stated) | 0.982
COc1ccc2c(=O)ccoc2c1 | 0.984

// for each molecule below, give its normalized growth
1. C[C@]12CCC(=O)C=C1CCC1C2[C@@H](O)C[C@@]2(C)C1CC[C@]2(O)C(=O)COC(=O)CCC(=O)O (some centres not stated)
2. CC(=O)OCC(=O)[C@@]1(O)CCC2C3CC[C@@H]4C[C@H](OC(C)=O)CC[C@]4(C)C3C(=O)C[C@@]21C (some centres not stated)
3. COc1cccc(O)c1O

**Result**
1. 1.01
2. 1.02
3. 1.01

// for each molecule below, give its normalized growth
1. CCC(C)C(N)C1=NC(C(=O)NC(CC(C)C)C(=O)NC(CCC(=O)O)C(=O)NC(C(=O)NCCCCC2NC(=O)C(CC(N)=O)NC(=O)C(CC(=O)O)NC(=O)C(Cc3cnc[nH]3)NC(=O)C(Cc3ccccc3)NC(=O)C(C(C)CC)NC(=O)C(CCCN)NC2=O)C(C)CC)CS1 (stereo not drawn) (cyclo(DNK([Ile-Glu-Leu-X1])[Orn]IFH); configuration not given here)
2. COc1ccc2c(c1)[C@]13CCCC[C@H]1[C@H](C2)N(C)CC3
3. COc1cc(O)cc(OC)c1OC
4. Cc1c(NC(=O)c2cccnc2)c(=O)n(-c2ccccc2)n1C
5. COc1cc2c(cc1OC)-c1c(oc3c4c(ccc3c1=O)OC(C(C)C)C4)CO2 (configuration not stated)

**Result**
[1, 0.979, 0.996, 0.995, 0.985]
